# Tested on: CCRF-CEM cells
# protocolDetails: Cytotoxicity / growth inhibition of CCRF-CEM leukemic cells
# appliedConditions: Homo sapiens, read-out: IC50, mean ± spread, Table 5A, CCRF-CEM, mean
endpoint: pIC50
To interpret pIC50, take it as minus log10 of a concentration measured in moles per litre.

{"compound": "C=CC(C)(C)C12CC3C(=O)N(C(C)=O)C(C)C(=O)N3C1N(C(C)=O)c1ccccc12 (stereo not shown) [Imide Di-Ac-DKP Amide 14(D), imide diacetate diketopiperazine]", "endpoint": "pIC50", "measuredNumber": 4.08}
{"compound": "C=CC(C)(C)C12CC3C(=O)NC(C)C(=O)N3C1N(C(C)=O)c1ccccc12 (stereo not shown) [5N-Ac-DKP 14(E), N-acetyldiketopiperazine]", "endpoint": "pIC50", "measuredNumber": 3.40}

Prompt: Specify the recorded pIC50 for C=CC(C)(C)C12CC3C(=O)NC(C)C(=O)N3C1N(C(=O)C(F)(F)F)c1ccccc12 (stereo not shown) [5N-F3 -Ac-DKP 14F(E), 5N-trifluoroacetyl diketopiperazine] , system: CCRF-CEM cells.
Completion: 4.49

Prompt: Please look at C=CC(C)(C)C12CC3C(=O)N(C(C)=O)C(C)C(=O)N3C1Nc1ccccc12 (stereo not shown) [Imide-Ac-DKP 14(A), imide acetate diketopiperazine] and tell me its recorded pIC50 on CCRF-CEM cells.
Completion: 4.21

Prompt: Please report pIC50 with CCRF-CEM cells for item C=CC(C)(C)C12CC3C(=O)NC(C)C(=O)N3C1Nc1ccccc12 (stereo not shown) .
Completion: 3.88

Prompt: State recorded pIC50 with CCRF-CEM cells, entry C=CC(C)(C)C12CC3C(=O)N(C(=O)OC(C)(C)C)C(C)C(=O)N3C1Nc1ccccc12 (stereo not shown) [Imide-BOC-DKP 14(C), imide-BOC diketopiperazine] , no comment.
Completion: 3.69

Prompt: Enter measured pIC50, system CCRF-CEM cells, for the compound shown: C=CC(C)(C)C12CC3C(=O)NCC(=O)N3C1N(C(C)=O)c1ccccc12 (stereo not shown)
Completion: 4.66

----------
# System: CCRF-CEM/VLB-100 cells
# protocolDetails: Intracellular accumulation of [3H]vinblastine in CCRF-CEM/VLB-100 cells
# Type: cell-based, human
# appliedConditions: 30 μM, washed
endpoint: [3H]vinblastine accumulation (fmole/10^3 cells)
// note: answer is a bare numeric in fmole/10^3 cells

{"molecule": "C=CC(C)(C)C12CC3C(=O)NC(C)C(=O)N3C1N(C(C)=O)c1ccccc12 (stereo not drawn) [5N-Ac-DKP 14(E), N-acetyldiketopiperazine]", "targetOfAssay": "CCRF-CEM/VLB-100 cells", "[3H]vinblastine accumulation (fmole/10^3 cells)": 3.59}

Prompt: Note [3H]vinblastine accumulation for the molecule shown: C=CCC12CC3c4nc5ccccc5c(=O)n4C(C)C(=O)N3C1N(C(C)=O)c1ccccc12 (stereo not drawn)
Completion: 6.18

Prompt: Answer with the recorded [3H]vinblastine accumulation of C=CC(C)(C)C12CC3C(=O)NC(C)C(=O)N3C1N(C(=O)C(F)(F)F)c1ccccc12 (stereo not drawn) [5N-F3 -Ac-DKP 14F(E), 5N-trifluoroacetyl diketopiperazine] only.
Completion: 5.77

----------
For reference, IC90 measured on CCRF-CEM cells:
Could you give the number and then its unit, please?

{"compound": "C=CCC12CC3c4nc5ccccc5c(=O)n4C(C)C(=O)N3C1N(C(C)=O)c1ccccc12 (centres unmarked)", "IC90": "888 µM"}

Now consider a different compound.
Prompt: # lookup: CCRF-CEM cells IC90, key = C=CC(C)(C)C12CC3c4nc5ccccc5c(=O)n4C(C)C(=O)N3C1Nc1ccccc12 (centres unmarked)
Completion: 65.7 µM

Hello, the source for this data is patent US6147076A, in case you need it.
